Hey, just so you know, these numbers are from the supplement of paper PMC4862054.

# System: CAL-148
# Measurement description: normalised response (% of control), CellTiter-Glo; higher = more viable cells (100 = DMSO, 0 = benzethonium chloride kill control)
# Setup conditions: incubation time: 72 h
Exercise: for every item that follows, state its recorded normalised response.
Numeric only. Scale: %

Look up normalised response of CNC(=O)c1cc(Oc2ccc(NC(=O)Nc3cc(C(C)(C)C)nn3-c3ccc4ncccc4c3)c(F)c2)ccn1 [Rebastinib] (100 nM) and report it.
105

Look up normalised response of Oc1ncc(N(CCCl)CCCl)c(O)n1 [Uracil mustard] (10 nM) and report it.
107

Look up normalised response of O=C(O)CCCCC(CCSCc1ccccc1)SCc1ccccc1 (stereo not given) [CPI-613] (10 nM) and report it.
103

Look up normalised response of C=CCc1cccc(/C=N/NC(=O)CN2CCN(Cc3ccccc3)CC2)c1O [PAC-1] (10 nM) and report it.
107

Look up normalised response of CNC(=O)c1cc(Oc2ccc(NC(=O)Nc3cc(C(C)(C)C)nn3-c3ccc4ncccc4c3)c(F)c2)ccn1 [Rebastinib] (0.1 nM) and report it.
104

Look up normalised response of COc1cc([C@@H]2c3cc4c(cc3[C@@H](O[C@@H]3O[C@@H]5CO[C@@H](c6cccs6)O[C@H]5[C@H](O)[C@H]3O)[C@H]3COC(=O)[C@H]23)OCO4)cc(OC)c1O [Teniposide] (10 nM) and report it.
93.2

Look up normalised response of Nc1ncn([C@H]2C[C@H](O)[C@@H](CO)O2)c(=O)n1 [Decitabine] (1000 nM) and report it.
83.5

Look up normalised response of C=CC(=O)N1CCC[C@@H](n2nc(-c3ccc(Oc4ccccc4)cc3)c3c(N)ncnc32)C1 [Ibrutinib] (100 nM) and report it.
95.4

Look up normalised response of Nc1ccccc1NC(=O)c1ccc(CNC(=O)OCc2cccnc2)cc1 [Entinostat] (1000 nM) and report it.
93.7

Look up normalised response of Nc1ccccc1NC(=O)c1ccc(CNC(=O)OCc2cccnc2)cc1 [Entinostat] (1 nM) and report it.
98.2

Look up normalised response of Cc1cnc(NC(=O)Nc2cc(Br)c(C)cc2OC[C@@H]2CNCCO2)cn1 [Rabusertib] (1 nM) and report it.
118

Look up normalised response of CC[C@@H]1C(=O)N(C)c2cnc(Nc3ccc(C(=O)NC4CCN(C)CC4)cc3OC)nc2N1C1CCCC1 [BI 2536] (100 nM) and report it.
68.1

Look up normalised response of CC(=O)Nc1cccc(-n2c(=O)n(C3CC3)c(=O)c3c(Nc4ccc(I)cc4F)n(C)c(=O)c(C)c32)c1 [Trametinib] (0.025 nM) and report it.
111

Look up normalised response of CCCS(=O)(=O)Nc1ccc(F)c(C(=O)c2c[nH]c3ncc(-c4ccc(Cl)cc4)cc23)c1F [Vemurafenib] (1 nM) and report it.
84.2

Look up normalised response of Cc1cnc(NC(=O)Nc2cc(Br)c(C)cc2OC[C@@H]2CNCCO2)cn1 [Rabusertib] (0.1 nM) and report it.
112

Look up normalised response of Nc1nc2[nH]cc(CCc3ccc(C(=O)N[C@@H](CCC(=O)O)C(=O)O)cc3)c2c(=O)[nH]1 [Pemetrexed] (1 nM) and report it.
98.9

Look up normalised response of CCN(CC)CCCC(C)Nc1c2ccc(Cl)cc2nc2ccc(OC)cc12 (stereo not given) [Mepacrine] (5000 nM) and report it.
88.7

Look up normalised response of CC1=C(/C=C/C(C)=C/C=C/C(C)=C/C(=O)O)C(C)(C)CCC1 [Tretinoin] (10 nM) and report it.
97.8

Look up normalised response of O=C(/C=C/c1cccnc1)NCCCCC1CCN(C(=O)c2ccccc2)CC1 [Daporinad] (0.1 nM) and report it.
101

Look up normalised response of C[C@H]1C[C@@H]2[C@H]([C@@H](O)C[C@@]3(C)[C@H]2CC[C@]3(O)C(=O)CO)[C@@]2(C)C=CC(=O)C=C12 [Methylprednisolone] (1 nM) and report it.
120
